target: UniProtKB Q06187; assay: radiometric filter-binding kinase assay; conditions: compound 100.0 µM; ATP 50 µM
Sequence (Q06187 whole entry, looked up): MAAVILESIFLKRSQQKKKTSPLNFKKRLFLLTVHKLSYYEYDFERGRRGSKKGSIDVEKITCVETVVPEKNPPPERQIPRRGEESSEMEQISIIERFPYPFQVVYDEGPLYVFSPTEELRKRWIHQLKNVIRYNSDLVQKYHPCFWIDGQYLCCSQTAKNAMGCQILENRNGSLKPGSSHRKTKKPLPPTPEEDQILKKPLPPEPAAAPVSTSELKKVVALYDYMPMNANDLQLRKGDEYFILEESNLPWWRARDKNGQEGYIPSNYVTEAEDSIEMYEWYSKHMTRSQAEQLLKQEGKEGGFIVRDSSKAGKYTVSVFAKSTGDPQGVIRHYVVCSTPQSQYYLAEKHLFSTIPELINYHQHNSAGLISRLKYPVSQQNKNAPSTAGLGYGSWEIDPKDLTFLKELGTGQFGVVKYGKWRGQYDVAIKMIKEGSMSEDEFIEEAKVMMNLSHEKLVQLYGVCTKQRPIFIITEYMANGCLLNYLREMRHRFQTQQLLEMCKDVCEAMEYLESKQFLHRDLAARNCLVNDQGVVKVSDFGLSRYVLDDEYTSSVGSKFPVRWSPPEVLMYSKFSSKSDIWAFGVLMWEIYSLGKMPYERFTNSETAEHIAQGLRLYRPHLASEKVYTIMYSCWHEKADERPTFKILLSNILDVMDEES
Recorded metric: inhibition (%)
Write down the numeric answer in % and omit the unit.

-- ask What does the record list as inhibition for O=c1cc(-c2ccccc2F)nc2[nH]ccn12 ?
-- reply 49

-- ask What does the record list as inhibition for CC(C)(C)Nc1c(C2CC2)nc2[nH]cnn12 ?
-- reply 6

-- ask What does the record list as inhibition for Nc1cnc2c(-c3c(F)cccc3F)cccn2c1=O ?
-- reply 67

---

biological target: MYLK (human); assay: radiometric filter-binding kinase assay; conditions: compound 100.0 µM; ATP 50 µM
Please go through the items and note down their inhibition.
Write down the numeric answer in % and omit the unit.

-- ask What does the record list as inhibition for O=c1c(NC(=S)NCc2ccccc2)cnc2[nH]ccn12 ?
-- reply 0

-- ask What does the record list as inhibition for COc1ccc(-c2cc3c(=O)[nH]cnc3s2)cc1OC ?
-- reply 0

-- ask What does the record list as inhibition for O=C(c1cccc(-c2cc3c(=O)[nH]cnc3s2)c1)N1CCOCC1 ?
-- reply 8

-- ask What does the record list as inhibition for CC(=O)Nc1nc2cnc(-c3c(C)cccc3C)cn2n1 ?
-- reply 0

-- ask What does the record list as inhibition for Cc1cccc(C)c1-c1cn2nc(N)nc2cn1 ?
-- reply 12

-- ask What does the record list as inhibition for O=C(Nc1cnc2[nH]ccn2c1=O)c1ccccc1 ?
-- reply 36

-- ask What does the record list as inhibition for CC(C)(C)Nc1c(C2CC2)nc2[nH]cnn12 ?
-- reply 14

-- ask What does the record list as inhibition for CC1CN(c2nc3ccccn3c(=O)c2N)CC(C)O1 (stereo not given) ?
-- reply 0

-- ask What does the record list as inhibition for COc1ccc(NC(=S)Nc2cnc3[nH]cnn3c2=O)cn1 ?
-- reply 0

-- ask What does the record list as inhibition for CC(C)(C)Nc1c(COCc2ccccc2)nc2[nH]cnn12 ?
-- reply 24

-- ask What does the record list as inhibition for O=c1cc(-c2ccccc2F)nc2[nH]ccn12 ?
-- reply 13

-- ask What does the record list as inhibition for Nc1nc2cnc(-c3ccccc3)cn2n1 ?
-- reply 19

-- ask What does the record list as inhibition for CC(=O)Nc1nc2cnc(-c3ccccc3)cn2n1 ?
-- reply 0

-- ask What does the record list as inhibition for Nc1cnc2c(-c3c(F)cccc3F)cccn2c1=O ?
-- reply 25

-- ask What does the record list as inhibition for O=C(Nc1cnc2[nH]cnn2c1=O)c1ccccc1 ?
-- reply 0

---

Please go through the items and note down their inhibition.
biological target: RPS6KA5 KD1 KD2 (human); experiment: radiometric filter-binding kinase assay; details: compound 100.0 µM; ATP 20 µM
Write down the numeric answer in % and omit the unit.

-- ask # get_value(readout= inhibition, system= RPS6KA5 KD1 KD2 (human)) for O=C(Nc1cnc2[nH]cnn2c1=O)c1ccccc1
-- reply 52

-- ask # get_value(readout= inhibition, system= RPS6KA5 KD1 KD2 (human)) for CC(=O)Nc1nc2cnc(-c3c(C)cccc3C)cn2n1
-- reply 0

-- ask # get_value(readout= inhibition, system= RPS6KA5 KD1 KD2 (human)) for Nc1nc2cnc(-c3ccccc3)cn2n1
-- reply 19

-- ask # get_value(readout= inhibition, system= RPS6KA5 KD1 KD2 (human)) for COc1ccc(NC(=S)Nc2cnc3[nH]cnn3c2=O)cn1
-- reply 28

-- ask # get_value(readout= inhibition, system= RPS6KA5 KD1 KD2 (human)) for Cc1cccc(C)c1-c1cn2nc(N)nc2cn1
-- reply 6

-- ask # get_value(readout= inhibition, system= RPS6KA5 KD1 KD2 (human)) for CC1CN(c2nc3ccccn3c(=O)c2N)CC(C)O1 (configuration not stated)
-- reply 0

-- ask # get_value(readout= inhibition, system= RPS6KA5 KD1 KD2 (human)) for Nc1cnc2c(-c3c(F)cccc3F)cccn2c1=O
-- reply 33

---

target: ABL1 (human); experiment: radiometric filter-binding kinase assay; conditions: compound 100.0 µM; ATP 5 µM
Please go through the items and note down their inhibition.

-- ask What does the record list as inhibition for COc1ccc(NC(=S)Nc2cnc3[nH]cnn3c2=O)cn1 ?
-- reply 5%

-- ask What does the record list as inhibition for Nc1cnc2c(-c3c(F)cccc3F)cccn2c1=O ?
-- reply 40%

-- ask What does the record list as inhibition for O=C(Nc1cnc2[nH]cnn2c1=O)c1ccccc1 ?
-- reply 3%

-- ask What does the record list as inhibition for CC(=O)Nc1nc2cnc(-c3ccccc3)cn2n1 ?
-- reply 48%

-- ask What does the record list as inhibition for COc1ccc(-c2cc3c(=O)[nH]cnc3s2)cc1OC ?
-- reply 34%

-- ask What does the record list as inhibition for CC(=O)Nc1nc2cnc(-c3c(C)cccc3C)cn2n1 ?
-- reply 18%

-- ask What does the record list as inhibition for CC(C)(C)Nc1c(COCc2ccccc2)nc2[nH]cnn12 ?
-- reply 11%

-- ask What does the record list as inhibition for Cc1cccc(C)c1-c1cn2nc(N)nc2cn1 ?
-- reply 14%

-- ask What does the record list as inhibition for O=c1cc(-c2ccccc2F)nc2[nH]ccn12 ?
-- reply 3%

---

molecular target: GSK3B (human); test: radiometric filter-binding kinase assay; settings: compound 100.0 µM; ATP 5 µM
Please go through the items and note down their inhibition.
Write down the numeric answer in % and omit the unit.

-- ask What does the record list as inhibition for O=C(Nc1cnc2[nH]cnn2c1=O)c1ccccc1 ?
-- reply 0

-- ask What does the record list as inhibition for O=c1cc(-c2ccccc2F)nc2[nH]ccn12 ?
-- reply 44

-- ask What does the record list as inhibition for Nc1nc2cnc(-c3ccccc3)cn2n1 ?
-- reply 72

-- ask What does the record list as inhibition for O=C(c1cccc(-c2cc3c(=O)[nH]cnc3s2)c1)N1CCOCC1 ?
-- reply 70

-- ask What does the record list as inhibition for Nc1cnc2c(-c3c(F)cccc3F)cccn2c1=O ?
-- reply 51

-- ask What does the record list as inhibition for CC(=O)Nc1nc2cnc(-c3c(C)cccc3C)cn2n1 ?
-- reply 8

-- ask What does the record list as inhibition for Cc1cccc(C)c1-c1cn2nc(N)nc2cn1 ?
-- reply 27

-- ask What does the record list as inhibition for O=c1c(NC(=S)NCc2ccccc2)cnc2[nH]ccn12 ?
-- reply 13

-- ask What does the record list as inhibition for O=C(Nc1cnc2[nH]ccn2c1=O)c1ccccc1 ?
-- reply 9

-- ask What does the record list as inhibition for COc1ccc(-c2cc3c(=O)[nH]cnc3s2)cc1OC ?
-- reply 62

-- ask What does the record list as inhibition for COc1ccc(NC(=S)Nc2cnc3[nH]cnn3c2=O)cn1 ?
-- reply 2

-- ask What does the record list as inhibition for CC(C)(C)Nc1c(C2CC2)nc2[nH]cnn12 ?
-- reply 24

-- ask What does the record list as inhibition for CC(C)(C)Nc1c(COCc2ccccc2)nc2[nH]cnn12 ?
-- reply 38

-- ask What does the record list as inhibition for CC(=O)Nc1nc2cnc(-c3ccccc3)cn2n1 ?
-- reply 73

-- ask What does the record list as inhibition for CC1CN(c2nc3ccccn3c(=O)c2N)CC(C)O1 (stereo not given) ?
-- reply 64

---

molecular target: DYRK2 (human) (UniProt Q92630); assay: radiometric filter-binding kinase assay; conditions: compound 100.0 µM; ATP 50 µM
Sequence (Q92630 whole entry, looked up): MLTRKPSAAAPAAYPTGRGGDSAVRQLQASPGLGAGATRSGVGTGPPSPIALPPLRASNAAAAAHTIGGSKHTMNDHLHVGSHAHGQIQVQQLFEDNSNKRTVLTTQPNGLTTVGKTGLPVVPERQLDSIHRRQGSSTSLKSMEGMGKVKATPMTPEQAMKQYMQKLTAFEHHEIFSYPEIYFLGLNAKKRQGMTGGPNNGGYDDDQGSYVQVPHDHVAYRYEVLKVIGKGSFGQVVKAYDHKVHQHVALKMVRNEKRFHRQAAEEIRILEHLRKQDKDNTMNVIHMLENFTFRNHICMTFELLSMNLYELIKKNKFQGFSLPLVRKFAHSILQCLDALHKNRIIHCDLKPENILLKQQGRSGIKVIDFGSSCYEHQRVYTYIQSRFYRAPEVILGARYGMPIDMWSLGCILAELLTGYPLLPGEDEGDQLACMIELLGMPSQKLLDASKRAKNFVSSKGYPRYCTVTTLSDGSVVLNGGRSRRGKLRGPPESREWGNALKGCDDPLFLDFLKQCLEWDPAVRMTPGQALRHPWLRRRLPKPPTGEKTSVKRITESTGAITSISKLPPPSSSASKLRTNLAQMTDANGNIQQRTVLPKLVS
Recorded metric: inhibition (%)
Write down the numeric answer in % and omit the unit.

-- ask What does the record list as inhibition for CC(=O)Nc1nc2cnc(-c3c(C)cccc3C)cn2n1 ?
-- reply 0

-- ask What does the record list as inhibition for O=C(Nc1cnc2[nH]ccn2c1=O)c1ccccc1 ?
-- reply 19

-- ask What does the record list as inhibition for O=C(Nc1cnc2[nH]cnn2c1=O)c1ccccc1 ?
-- reply 27

---

molecular target: SRC (human) (UniProt P12931); assay: radiometric filter-binding kinase assay; settings: compound 100.0 µM; ATP 50 µM
Sequence (P12931 whole entry, looked up): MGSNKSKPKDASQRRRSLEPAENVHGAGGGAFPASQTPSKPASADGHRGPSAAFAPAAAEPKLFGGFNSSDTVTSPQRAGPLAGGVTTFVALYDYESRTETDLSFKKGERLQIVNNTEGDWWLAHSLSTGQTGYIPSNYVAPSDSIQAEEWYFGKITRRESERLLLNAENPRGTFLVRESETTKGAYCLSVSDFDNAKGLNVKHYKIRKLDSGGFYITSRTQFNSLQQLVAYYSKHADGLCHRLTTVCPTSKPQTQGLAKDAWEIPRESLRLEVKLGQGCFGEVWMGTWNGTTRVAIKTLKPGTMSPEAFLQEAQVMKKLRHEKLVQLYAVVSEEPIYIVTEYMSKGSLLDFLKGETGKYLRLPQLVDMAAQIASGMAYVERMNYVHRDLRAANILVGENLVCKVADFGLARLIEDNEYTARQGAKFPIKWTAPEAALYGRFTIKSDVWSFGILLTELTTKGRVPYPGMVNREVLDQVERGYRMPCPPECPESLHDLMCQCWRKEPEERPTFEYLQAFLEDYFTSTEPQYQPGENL
Please go through the items and note down their inhibition.
Write down the numeric answer in % and omit the unit.

-- ask What does the record list as inhibition for CC(C)(C)Nc1c(COCc2ccccc2)nc2[nH]cnn12 ?
-- reply 12

-- ask What does the record list as inhibition for CC1CN(c2nc3ccccn3c(=O)c2N)CC(C)O1 (stereo not given) ?
-- reply 73

-- ask What does the record list as inhibition for Cc1cccc(C)c1-c1cn2nc(N)nc2cn1 ?
-- reply 29

-- ask What does the record list as inhibition for O=c1cc(-c2ccccc2F)nc2[nH]ccn12 ?
-- reply 11

-- ask What does the record list as inhibition for O=C(c1cccc(-c2cc3c(=O)[nH]cnc3s2)c1)N1CCOCC1 ?
-- reply 33

-- ask What does the record list as inhibition for COc1ccc(NC(=S)Nc2cnc3[nH]cnn3c2=O)cn1 ?
-- reply 38

-- ask What does the record list as inhibition for O=c1c(NC(=S)NCc2ccccc2)cnc2[nH]ccn12 ?
-- reply 0

-- ask What does the record list as inhibition for Nc1nc2cnc(-c3ccccc3)cn2n1 ?
-- reply 48

-- ask What does the record list as inhibition for COc1ccc(-c2cc3c(=O)[nH]cnc3s2)cc1OC ?
-- reply 0

-- ask What does the record list as inhibition for CC(C)(C)Nc1c(C2CC2)nc2[nH]cnn12 ?
-- reply 0

-- ask What does the record list as inhibition for CC(=O)Nc1nc2cnc(-c3ccccc3)cn2n1 ?
-- reply 18

-- ask What does the record list as inhibition for Nc1cnc2c(-c3c(F)cccc3F)cccn2c1=O ?
-- reply 35

-- ask What does the record list as inhibition for O=C(Nc1cnc2[nH]cnn2c1=O)c1ccccc1 ?
-- reply 0

-- ask What does the record list as inhibition for CC(=O)Nc1nc2cnc(-c3c(C)cccc3C)cn2n1 ?
-- reply 0

-- ask What does the record list as inhibition for O=C(Nc1cnc2[nH]ccn2c1=O)c1ccccc1 ?
-- reply 8

Data provenance: the kinase profiling compilation of Christmann-Franck et al. (2016)
